# assay method text: Inhibition of elastase
pIC50: −log10 of the molar value.
recorded endpoint: pIC50

Below are worked cases with known answers.
>  <smi>
NCc1cccc(C2CCN(C(=O)c3ccc(C#Cc4ccccn4)o3)CC2)c1.O=C(O)C(F)(F)F

>  <recorded endpoint>
pIC50

>  <endpoint result>
< 4.00

$$$$
>  <smi>
NCc1cccc(C2CCN(C(=O)c3ccc(C#Cc4ccccc4)o3)CC2)c1.O=C(O)C(F)(F)F

>  <recorded endpoint>
pIC50

>  <endpoint result>
< 4.00

$$$$

IN: // Input: `NCc1cccc(C2CCN(C(=O)c3ccc(C#Cc4ccccc4F)o3)CC2)c1.O=C(O)C(F)(F)F` . Output its pIC50 only.
OUT: < 4.00
